experiment_summary: Solubility analysis in water and media of different pH, HPLC
Assay type: physicochemical
experimental_setup: pH = 6.8, 37° C.±1° C.
property_label: Equilibrium Solubility (mg/250 ml)

[[record]]
compound = "Cc1cncc(CN2CCC(=C3c4ccccc4CC(=O)c4sccc43)CC2)c1.O=C(O)/C=C/C(=O)O [Mixed crystal]"
property_label = "Equilibrium Solubility"
recorded_result = 3.61

[[record]]
compound = "Cc1cncc(CN2CCC(=C3c4ccccc4CC(=O)c4sccc43)CC2)c1.O=C(O)/C=C/C(=O)O [Crystalline form A]"
property_label = "Equilibrium Solubility"
recorded_result = 3.39

[[record]]
compound = "Cc1cncc(CN2CCC(=C3c4ccccc4CC(=O)c4sccc43)CC2)c1.O=C(O)/C=C/C(=O)O [Crystalline form B]"
property_label = "Equilibrium Solubility"
recorded_result = 2.56

[[record]]
compound = "Cc1cncc(CN2CCC(=C3c4ccccc4CC(=O)c4sccc43)CC2)c1.O=C(O)/C=C/C(=O)O [Crystalline form C]"
property_label = "Equilibrium Solubility"
recorded_result = 4.40


----------
experiment_summary: Solubility analysis in water and media of different pH, HPLC
Assay type: physicochemical
experimental_setup: pH = 4.0, 37° C.±1° C.
property_label: Concentration (µg/mL)

[[record]]
compound = "Cc1cncc(CN2CCC(=C3c4ccccc4CC(=O)c4sccc43)CC2)c1.O=C(O)/C=C/C(=O)O [Mixed crystal]"
property_label = "Concentration"
recorded_result = 2530

[[record]]
compound = "Cc1cncc(CN2CCC(=C3c4ccccc4CC(=O)c4sccc43)CC2)c1.O=C(O)/C=C/C(=O)O [Crystalline form A]"
property_label = "Concentration"
recorded_result = 2290

[[record]]
compound = "Cc1cncc(CN2CCC(=C3c4ccccc4CC(=O)c4sccc43)CC2)c1.O=C(O)/C=C/C(=O)O [Crystalline form B]"
property_label = "Concentration"
recorded_result = 1410

[[record]]
compound = "Cc1cncc(CN2CCC(=C3c4ccccc4CC(=O)c4sccc43)CC2)c1.O=C(O)/C=C/C(=O)O [Crystalline form C]"
property_label = "Concentration"
recorded_result = 2840


----------
experiment_summary: Solubility analysis in water and media of different pH, HPLC
Assay type: physicochemical
experimental_setup: pH = 4.5, 37° C.±1° C.
The entries below come with measured Equilibrium Solubility values attached.
property_label: Equilibrium Solubility (mg/250 ml)

[[record]]
molecule = "Cc1cncc(CN2CCC(=C3c4ccccc4CC(=O)c4sccc43)CC2)c1.O=C(O)/C=C/C(=O)O [Crystalline form B]"
recorded_result = 339.48

[[record]]
molecule = "Cc1cncc(CN2CCC(=C3c4ccccc4CC(=O)c4sccc43)CC2)c1.O=C(O)/C=C/C(=O)O [Crystalline form A]"
recorded_result = 747.72

[[record]]
molecule = "Cc1cncc(CN2CCC(=C3c4ccccc4CC(=O)c4sccc43)CC2)c1.O=C(O)/C=C/C(=O)O [Crystalline form C]"
recorded_result = 942.80

[[record]]
molecule = "Cc1cncc(CN2CCC(=C3c4ccccc4CC(=O)c4sccc43)CC2)c1.O=C(O)/C=C/C(=O)O [Mixed crystal]"
recorded_result = 856.32


----------
experiment_summary: Solubility analysis in water and media of different pH, HPLC
Type: physicochemical
experimental_setup: pH = 2.2, 37° C.±1° C.
Examples of compounds with documented Equilibrium Solubility follow.
property_label: Equilibrium Solubility (mg/250 ml)

[[record]]
compound = "Cc1cncc(CN2CCC(=C3c4ccccc4CC(=O)c4sccc43)CC2)c1.O=C(O)/C=C/C(=O)O [Crystalline form A]"
recorded_result = 751.00

[[record]]
compound = "Cc1cncc(CN2CCC(=C3c4ccccc4CC(=O)c4sccc43)CC2)c1.O=C(O)/C=C/C(=O)O [Mixed crystal]"
recorded_result = 849.73

[[record]]
compound = "Cc1cncc(CN2CCC(=C3c4ccccc4CC(=O)c4sccc43)CC2)c1.O=C(O)/C=C/C(=O)O [Crystalline form C]"
recorded_result = 1013.35

[[record]]
compound = "Cc1cncc(CN2CCC(=C3c4ccccc4CC(=O)c4sccc43)CC2)c1.O=C(O)/C=C/C(=O)O [Crystalline form B]"
recorded_result = 659.74

